read-out: flavin-containing dimethylaniline monooxygenases 3 (FMO3), FMO3 (gene 2328); assay: LTEA_HepaRG_FMO3: Life Technologies and Expression Analysis (LTEA) Assay for flavin-containing dimethylaniline monooxygenases 3 (FMO3) using HepaRG (AID 2283453); conditions: mRNA level, 48 h; actives raise or lower the signal
The source made the active and inactive calls. Rule for the calls: active = hit-call score of the fitted dose curve at least 0.9, where 1 is the maximum; inactive = score below 0.9.
Returns: one label drawn from active, inactive

The examples below pair each entry with its known result.
>  <compound>
C[C@@H]1C[C@@H]([C@H](O)CC2CC(=O)NC(=O)C2)C(=O)[C@@H](C)C1

>  <qualitative_label>
active

$$$$
>  <compound>
O=C(Nc1ccc2[nH]ccc2c1)c1cc2cc(F)ccc2n1Cc1cccc(F)c1

>  <qualitative_label>
active

$$$$
>  <compound>
CC(C)(C)CC(C)(C)c1ccc(O)cc1

>  <qualitative_label>
inactive

$$$$
>  <compound>
CCOP(=S)(OCC)SCSP(=S)(OCC)OCC

>  <qualitative_label>
inactive

$$$$
>  <compound>
O=C(O)C(F)(F)C(F)(F)C(F)(F)C(F)(F)C(F)(F)C(F)(F)C(F)(F)C(F)(F)C(F)(F)C(F)(F)F

>  <qualitative_label>
active

$$$$

// return assay outcome for CC(=O)[O][Hg][c]1ccccc1
active

Can you check CC(C)(c1ccccc1)c1ccc(O)c(C(C)(C)c2ccccc2)c1 next?
active

Can you check CN(C)N=O next?
inactive

Can you check CC(C)(C)c1cc(O)ccc1O next?
inactive
